System: HS 578T breast
PROTOCOL_NOTES: NCI tumour cell line growth inhibition, 48 h
PROPERTY_MEASURED: TGI (µM)
Give the value in µM but do not write µM after it.

Consider the reported TGI for these compounds:
- COMPOUND: "Cc1ccc2cccc(OC(=O)Nc3cccc(C(F)(F)F)c3)c2n1"
  UNIT_TEXT: "µM"
  TGI: 18.9
- COMPOUND: "CC(C)(c1ccccc1)c1cc(O)c(C(C)(C)c2ccccc2)cc1O"
  UNIT_TEXT: "µM"
  TGI: 19.6
- COMPOUND: "COc1ccc(C(=NN=C(N)N)c2ccc(OC)cc2)cc1"
  UNIT_TEXT: "µM"
  TGI: 6.93
- COMPOUND: "C#CC(=O)Nc1cccc2c1cc(C)n2-c1nc2c(c(NCc3ccccc3)n1)CCCC2"
  UNIT_TEXT: "µM"
  TGI: 3.07
- COMPOUND: "CN(C)CCCSc1ccccc1NC1=C(Cl)C(=O)C(Nc2ccccc2SCCCN(C)C)=C(Cl)C1=O"
  UNIT_TEXT: "µM"
  TGI: 21.4

**Query** Indicate its recorded TGI; the compound in question is COc1ccc2nc3c([N+](=O)[O-])ccc4c3c(c2c1)NCCN4CCN(C)C
**Result** 3.91

**Query** Return TGI (reported value) for this compound: Cc1cc(N2CCCCC2)nc(NC2CCCC(Nc3ccnc4cc(Cl)ccc34)C2)n1 (stereo not drawn)
**Result** 3.95

----------
System: MDA-MB-435
Allowed answers: YES (active), NO (inactive)

- MOLECULE: "COc1ccc(CCN(CC(=O)N(CC(N)=O)C2CCC[C@@H]2OCc2ccccc2)C(=O)CN(C(=O)CN(CCc2ccc(Cl)cc2)C(=O)CN(C(=O)CN(C)Cc2ccccc2F)[C@H](C)C2CCCCC2)[C@H](C)C2CCCCC2)cc1OC (some centres undefined)"
  TEST_TARGET: "MDA-MB-435"
  GROUP: "NO"

**Query** What did this assay record as the result for O=C1c2cccnc2C(=O)c2c1c(C(=O)OCCN1CCCCC1)c1ccccn21 ?
**Result** YES

**Query** Dear all, I need the recorded test outcome for Cc1ccc2cccc(OC(=O)Nc3cccc(C(F)(F)F)c3)c2n1 , thank you.
**Result** NO

**Query** Which result was noted for this molecule in the test: Oc1c(Cl)cc(Cl)cc1/C=N/Nc1nnc(N/N=C/c2cc(Cl)cc(Cl)c2O)c2ccccc12
**Result** NO

----------
GI50 values by entry
System: SN12C renal
PROTOCOL_NOTES: NCI tumour cell line growth inhibition, 48 h

**Query** Identify measured GI50 associated with O=c1cnnc(N/N=C/c2ccccc2O)[nH]1
**Result** 4.21 µM

----------
This listing pairs compounds with measured TGI.
Tested on: CCRF-CEM leukemia
PROTOCOL_NOTES: NCI tumour cell line growth inhibition, 48 h

**Query** Name the recorded TGI of the item CC(=O)NCCCCN(CCCNC(C)=O)C(=O)CNS(=O)(=O)c1cccc2c(N(C)C)cccc12 in your answer.
**Result** > 100 µM

**Query** // Input: CCN(CC)CC(C)C(=O)/C=C/c1ccc(C)cc1 (stereo not given) . Output its TGI only.
**Result** 16.1 µM

**Query** Could you please provide reported TGI for CC(=O)Nc1ccc(-c2nnc(SCC(=O)Nc3cccc(Cl)c3)o2)cc1 ? Thanks!
**Result** > 100 µM

**Query** Return TGI for the following compound: O=C1/C(=C/c2ccc(O)cc2)CCc2ccc([N+](=O)[O-])cc21
**Result** > 100 µM

**Query** Provide TGI value for the following compound: CSc1nc(CO)c(CO)n1C
**Result** > 100 µM

**Query** Quickly give me recorded TGI for CC(C)(C)c1ccc2c(c1)C#Cc1cc(C(C)(C)C)ccc1OCCCO2
**Result** > 100 µM

**Query** Output measured TGI for this item: CCOC(=O)C1=C(C)NC(=O)NC1CN1C(=O)c2ccccc2C1=O (stereo not given)
**Result** > 100 µM

**Query** Respond only with TGI recorded for CCCCCCCCCCCCCC1=C(O)C(=O)C(CC2=C(O)C(=O)C(CCCCCCCCCCCCC)=C(O)C2=O)=C(O)C1=O
**Result** > 100 µM

**Query** Return TGI for the following compound: C=C1C(=O)O[C@H]2[C@H](OC(C)=O)[C@@H](C)CCCC3(C)OC3CCC3(CO3)[C@H](O)C[C@@H]12 (stereo not given in full)
**Result** 7.27 µM

**Query** Please supply the value of reported TGI for the item O=C(N/C(=C\c1cccc([N+](=O)[O-])c1)c1nc2ccccc2[nH]1)c1ccccc1
**Result** > 100 µM

**Query** State its TGI for this compound: C/C(=N\OCC(O)CNCCSCc1ccccc1)c1ccccc1Cl (stereo not given)
**Result** 72.9 µM
